Parameter GI50: see the listing below.
- System: HOP-62 NSCLC
- method-description: NCI tumour cell line growth inhibition, 48 h

Guide cases for GI50, answers given:
{"structure-smiles-string": "CS(=O)(=O)Nc1ccc(-c2cc(-c3ccccc3)cc(C(N)=O)c2N)cc1", "GI50": "> 25 µM"}
{"structure-smiles-string": "O=C1C(=O)c2c(nc3ccc(Br)cn23)-c2ccccc21", "GI50": "1.59 µM"}

Now for another entry.
Please give the measured GI50 for this compound: Cc1ccccc1-n1ncc(C(=O)c2ccccc2)c1N
> 25 µM

---

- Test system: KM12 colon
- method-description: NCI tumour cell line growth inhibition, 48 h
Parameter TGI: see the listing below.

Please give the measured TGI for this molecule: CCOC(=O)C(C)NC(=O)C(C)NC(=O)C(C)NC(=O)C(C)NC(=O)C(C)NC(=O)OCc1ccccc1 (stereo not drawn)
> 100 µM

Please give the measured TGI for this molecule: N#Cc1ccccc1NC(=O)C(=O)c1c(O)c2ccccc2oc1=O
> 100 µM

Please give the measured TGI for this molecule: Cc1cccc2c1N(C(=O)/C=C\C(=O)O)C(c1c(C)[nH]c3ccccc13)C2 (stereo not drawn)
> 100 µM

---

- System: CCRF-CEM leukemia
- method-description: NCI tumour cell line growth inhibition, 48 h
Parameter GI50: see the listing below.

Guide cases for GI50, answers given:
{"compound": "O=[N+]([O-])c1ccc(Sc2ncnc3nc[nH]c23)c2nonc12", "recorded-measurement": "1.78 µM"}
{"compound": "Cn1cc(C2=C(c3cn(C)c4c([N+](=O)[O-])cccc34)C(=O)NC2=O)c2ccccc21", "recorded-measurement": "> 25 µM"}
{"compound": "C[C@H](Nc1ncnc2nc[nH]c12)c1cc2ccc(F)cc2nc1-c1ccccn1", "recorded-measurement": "> 70.2 µM"}
{"compound": "c1cc2[nH]ncc2cc1-c1nc2ccc3[nH]ncc3c2c2c1CCCC2", "recorded-measurement": "0.836 µM"}
{"compound": "NC1CCC(Nc2nc(NCc3ccc(-c4cccs4)nc3)c3ncn(C4CCCC4)c3n2)CC1 (stereo not given)", "recorded-measurement": "0.0329 µM"}
{"compound": "CCCCCCCCCCCCCC1=NCCN1CCO", "recorded-measurement": "10.5 µM"}

Please give the measured GI50 for this compound: Clc1ccc2c(c1)N(c1ncnc3ccc(-c4cnc5[nH]ccc5c4)cc13)CC2
1.71 µM

Please give the measured GI50 for this compound: Cc1ccc2ncnc(N(CC(C)C)CC(C)C)c2c1
6.55 µM

Please give the measured GI50 for this compound: C/C(=C\CCc1ccoc1)CC/C=C(\C)CCCN1CCOCC1
2.79 µM

Please give the measured GI50 for this compound: Cc1ccccc1-n1ncc(C(=O)c2ccccc2)c1N
> 25 µM

---

- Test system: OVCAR-3 ovarian
- method-description: NCI tumour cell line growth inhibition, 48 h
Parameter TGI: see the listing below.

{"compound": "CN(NC(=O)c1cccs1)C1=NCCCCN1", "recorded-measurement": "> 100 µM"}
{"compound": "O=S(=O)(O)c1ccc(N=Nc2c(O)ccc3cc(Br)ccc23)cc1", "recorded-measurement": "> 100 µM"}
{"compound": "Cn1cc(C2=C(c3cn(C)c4c([N+](=O)[O-])cccc34)C(=O)NC2=O)c2ccccc21", "recorded-measurement": "> 25 µM"}

Please give the measured TGI for this compound: COC(=O)/C(=N\Nc1nc(=S)[nH]n1N)C(C#N)c1ccccc1 (stereo unspecified)
> 100 µM

Please give the measured TGI for this compound: CC(C)(C)Nc1noc(=O)n1C(C)(C)C
> 100 µM

Please give the measured TGI for this compound: CCCCCCCCCCCCCC1=NCCN1CCO
6.48 µM

Please give the measured TGI for this compound: c1cc2c(c(NC3=NCCO3)c1)CCC2
> 100 µM

Please give the measured TGI for this compound: NC(=S)N/N=C1\NC(=O)/C(=C/c2ccc3c(c2)OCO3)S1
45.7 µM

---

- Tested on: UACC-257 melanoma
- method-description: NCI tumour cell line growth inhibition, 48 h
Parameter GI50: see the listing below.

Guide cases for GI50, answers given:
{"molecule": "C[C@H](Nc1ncnc2nc[nH]c12)c1cc2ccc(F)cc2nc1-c1ccccn1", "GI50": "> 100 µM"}
{"molecule": "COc1ccc(C(=O)c2cc(OC)c(OC)c(OC)c2)cc1/C=C/C(=O)c1ccc(OC)c(OC)c1", "GI50": "3.19 µM"}
{"molecule": "Cn1cc(C2=C(c3cn(C)c4c([N+](=O)[O-])cccc34)C(=O)NC2=O)c2ccccc21", "GI50": "> 25 µM"}
{"molecule": "COC1CCN(C(=O)c2cc(Cc3n[nH]c(=O)c4ccccc34)ccc2F)CC1", "GI50": "> 83.2 µM"}
{"molecule": "Clc1ccc2c(c1)N(c1ncnc3ccc(-c4cnc5[nH]ccc5c4)cc13)CC2", "GI50": "14.8 µM"}
{"molecule": "CN(Cc1cc(Br)cc(Br)c1O)Cc1cc(Br)cc(Br)c1O", "GI50": "2.44 µM"}
{"molecule": "O=[N+]([O-])c1ccccc1N/N=C\\c1c[nH]c2ccccc12", "GI50": "26.4 µM"}
{"molecule": "COc1ccc2cc(-c3cc4c(oc3=O)-c3ccccc3OC4O)c(=O)oc2c1 (centres undefined)", "GI50": "16.2 µM"}

Now for another entry.
Please give the measured GI50 for this molecule: Nc1nc2c(s1)CCc1c-2c(Br)n(Cc2ccccc2)c1Br
12.1 µM

---

- System: A498 renal
- method-description: NCI tumour cell line growth inhibition, 48 h
Parameter TGI: see the listing below.

{"molecule": "CCOC(=O)[C@@]12C3C=CC(CC3)[C@]1(C(=O)c1ccccc1)C(=O)C(=O)N2c1ccccc1 (some centres undefined)", "recorded-measurement": "> 100 µM"}
{"molecule": "Cc1ccc(-c2cc3c(SCC(=O)Nc4cc(C(F)(F)F)ccc4Cl)nccn3n2)cc1", "recorded-measurement": "> 100 µM"}
{"molecule": "CC1CC[C@@]2(OC1)OC1CC3C4CCC5C[C@@H](OC6OC(CO)C(OC7OC(CO)C(O)C(OC8OC(CO)C(O)C(OC9OC(CO)C(O)C(O)C9O)C8O)C7OC7OC(CO)C(O)C(O)C7O)C(O)C6O)[C@H](O)C[C@]5(C)C4CC[C@]3(C)C1[C@@H]2C (some centres undefined)", "recorded-measurement": "> 80.5 µM"}

Please give the measured TGI for this molecule: COC(=O)/C=C1/CCC(C)(C(=O)NS(=O)(=O)c2ccc(C)cc2)C1(C)C (centres undefined)
> 100 µM

---

- Tested on: NCI-H522 lung
- method-description: NCI tumour cell line growth inhibition, 48 h
Parameter TGI: see the listing below.

Guide cases for TGI, answers given:
{"compound": "COc1cc(OC)c2nc(C)c3c(c2c1)NCC3", "test-target": "NCI-H522 lung", "recorded-measurement": "19.6 µM"}
{"compound": "N/N=C(\\C(=O)Nc1ccc(Cl)cc1Cl)C(c1cnc2ccccc2n1)[N+](=O)[O-] (centres undefined)", "test-target": "NCI-H522 lung", "recorded-measurement": "> 100 µM"}
{"compound": "CCOC(=O)CSC(=O)NCCCl", "test-target": "NCI-H522 lung", "recorded-measurement": "> 100 µM"}
{"compound": "CC(=O)Nc1cc(N(CCOS(C)(=O)=O)CCOS(C)(=O)=O)ccc1N=O", "test-target": "NCI-H522 lung", "recorded-measurement": "> 100 µM"}
{"compound": "COc1cc(-c2nc3ccccc3s2)ccc1NC(=O)COc1ccc(Cl)cc1", "test-target": "NCI-H522 lung", "recorded-measurement": "12.1 µM"}
{"compound": "CC1=CC[C@@]2(CO)[C@@H]([C@@H]1C)[C@H]1CC[C@@H]3[C@@]4(C)CC[C@H](O)C(C)(C)[C@@H]4CC[C@@]3(C)[C@]1(C)C[C@@H]2O", "test-target": "NCI-H522 lung", "recorded-measurement": "42.8 µM"}
{"compound": "CNC(=O)SCC(N)C(=O)O (centres undefined)", "test-target": "NCI-H522 lung", "recorded-measurement": "> 100 µM"}
{"compound": "CC(=O)NC(CCC(=O)C=[N+]=N)C(=O)O (centres undefined)", "test-target": "NCI-H522 lung", "recorded-measurement": "> 100 µM"}

Please give the measured TGI for this compound: O=c1ccn(C2OC(CO)C(O)C2[Se]c2ccccc2)c(=O)[nH]1 (centres undefined)
> 100 µM

---

Parameter GI50: see the listing below.
- System: HCC-2998 colon
- method-description: NCI tumour cell line growth inhibition, 48 h

Guide cases for GI50, answers given:
{"molecule": "COc1ccc(C(=O)c2cc(OC)c(OC)c(OC)c2)cc1/C=C/C(=O)c1ccc(OC)c(OC)c1", "GI50": "4.14 µM"}
{"molecule": "O=C1c2nsnc2C(=O)c2c(F)c(F)c(F)c(F)c21", "GI50": "1.56 µM"}
{"molecule": "Cc1ccc(C(SCC(N)C(=O)O)(c2ccc(C)cc2)c2ccc(C)cc2)cc1 (stereo not given)", "GI50": "2.5 µM"}

Please give the measured GI50 for this molecule: CCCCCCCCCCCCCC1=NCCN1CCO
4.03 µM

Please give the measured GI50 for this molecule: CCOC(=O)c1c(C)n2c(=O)cc(C)c3c(O)c(O)cc1c32
40.8 µM
